Hi, quick share: literature IC50 data for UniProt P03951, several sources combined.
Hi! Could you send only the number? It should be in µM, unit omitted.

Request: Which IC50 value belongs to `O=S(=O)(Nc1cccc2nsnc12)c1ccccc1` ?
Result: 9.3

Request: Which IC50 value belongs to `O=C(Oc1ccc(=O)n(-c2ccccc2)n1)c1ccc(Cl)cc1` ?
Result: 5.6

Request: Which IC50 value belongs to O=C1OCC2OC(O)C(O)C(O)C2OC(=O)c2cc(O)c(O)c(O)c2-c2c(O)c(O)c3oc(=O)c4c(c(O)c(O)c5oc(=O)c2c3c54)-c2c1cc(O)c(O)c2O (stereo not given) ?
Result: 6.08

Request: Which IC50 value belongs to `COC(=O)CSc1nnc(C)n1-c1cccc(OC)c1` ?
Result: 2.36

Request: Which IC50 value belongs to `Cc1ccc(C(=O)n2nnc3ccccc32)cc1` ?
Result: 2.39

Request: Which IC50 value belongs to `CC(C)[C@H](NC(=O)[C@H](Cc1ccccc1)NC(=O)Cc1cccs1)C(=O)N[C@@H](CCCN=C(N)N)C(=O)c1nccs1` ?
Result: 2.6

Request: Which IC50 value belongs to `Cc1ccc(C(=O)NNC(=S)NC(=O)COc2ccccc2)cc1` ?
Result: 3

Request: Which IC50 value belongs to `COc1ccccc1-n1cnnc1SCC(=O)Nc1nc(C)c(Cl)cc1Cl` ?
Result: 10.2

Request: Which IC50 value belongs to `N#CC1(F)CN(Cc2ccc(CNC(=O)c3cnnc(N4CC[C@]5(C4)OC(=O)Nc4ccc(Cl)c(F)c45)c3)cc2)C1` ?
Result: 10

====

pIC50: −log10 of the molar value.
Hi, quick share: literature pIC50 data for Coagulation factor XI (Homo sapiens), several sources combined.

Request: Give pIC50 (Coagulation factor XI (Homo sapiens)) of the following compound: `CCc1ccccc1-n1c(O)cc(=O)[nH]c1=O`
Result: < 4.30

Request: Give pIC50 (Coagulation factor XI (Homo sapiens)) of the following compound: `CCOC(=O)CSc1nnc(-c2ccccc2)o1`
Result: < 4.30

Request: Give pIC50 (Coagulation factor XI (Homo sapiens)) of the following compound: `COc1cc(C(=O)NCC(=O)OCn2nnc3ccccc3c2=O)cc(OC)c1OC`
Result: < 4.30

Request: Give pIC50 (Coagulation factor XI (Homo sapiens)) of the following compound: `O=C(Nc1ccc(Cl)cc1)Nc1nc(-c2ccccc2O)cs1`
Result: < 4.30

Request: Give pIC50 (Coagulation factor XI (Homo sapiens)) of the following compound: `NS(=O)(=O)c1ccc(CCNC(=O)Cc2ccccc2[N+](=O)[O-])cc1`
Result: < 4.30

Request: Give pIC50 (Coagulation factor XI (Homo sapiens)) of the following compound: `CSc1nc2cc3c(cc2n1C(=O)c1ccc(C)cc1)OCCO3`
Result: 5.65

Request: Give pIC50 (Coagulation factor XI (Homo sapiens)) of the following compound: `O=C1c2ccccc2C(=O)N1OS(=O)(=O)c1ccccc1`
Result: 5.85

Request: Give pIC50 (Coagulation factor XI (Homo sapiens)) of the following compound: `O=C1Nc2ccc(Cl)c(F)c2[C@]2(CCN(c3cncc(C(=O)NCc4ccc(N5CCC5)nc4)n3)C2)O1`
Result: 5.00

Request: Give pIC50 (Coagulation factor XI (Homo sapiens)) of the following compound: `Cc1ccc(NS(=O)(=O)c2ccc(C(=O)OCC(=O)Nc3cc(C)on3)cc2)cc1`
Result: < 4.30

Request: Give pIC50 (Coagulation factor XI (Homo sapiens)) of the following compound: `CCc1ccc(NC(=O)Cn2nc(C(F)(F)F)c3c2CCC3)cc1`
Result: < 4.30
